- target-system: spermidine/spermine acetyltransferase 1 (SAT1) (Homo sapiens)
- Sequence (P21673 whole entry): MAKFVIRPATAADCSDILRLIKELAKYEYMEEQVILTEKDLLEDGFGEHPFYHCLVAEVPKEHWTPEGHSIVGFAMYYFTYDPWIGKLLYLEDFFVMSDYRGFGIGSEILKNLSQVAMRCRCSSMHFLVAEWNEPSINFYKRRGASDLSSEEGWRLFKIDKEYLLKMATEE
- assay-procedure: continuous spectrophotometric acetyltransferase assay, […] spermidine as substrate
pIC50: −log10 of the molar value.
parameter-measured: pIC50

In [3]: df
Out[3]:
                               mol_smiles                             target_system  parameter_measured  reported_result
0  N=C(N)c1ccc(/N=N/Nc2ccc(C(=N)N)cc2)cc1  spermidine/spermine acetyltransferase 1 (SAT1) (Homo sapiens)               pIC50             4.68

====

- target-system: SpeG (Escherichia coli)
- Sequence (P0A951 whole entry): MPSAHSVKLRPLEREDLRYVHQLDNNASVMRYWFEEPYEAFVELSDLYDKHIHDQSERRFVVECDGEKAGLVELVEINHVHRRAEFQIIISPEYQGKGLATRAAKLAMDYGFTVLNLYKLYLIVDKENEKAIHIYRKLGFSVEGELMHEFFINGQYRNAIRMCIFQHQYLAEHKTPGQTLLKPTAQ
parameter-measured: IC50 (µM)

>>> print(df.to_string())
                               mol_smiles  parameter_measured  result_unit  reported_result
0  N=C(N)c1ccc(/N=N/Nc2ccc(C(=N)N)cc2)cc1                IC50           µM             26.2
